Tested on: MS2 coat protein
method_summary: apparent Kd, MS2 coat protein; higher = weaker binding; RNA-MaP array; FMN 200 µM where present
conditions: ligand present: flavin mononucleotide; designed as: OFF switch for flavin mononucleotide
experimental_endpoint: apparent Kd (nM)
Expressed in nM, but write only the number.

AAAAAGUCAGGAUAUGCGAAGGCGUCUGAUAGACGAGGCUAGCAGAAGGGACAUGAGGAUCACCCAUGUAAAAA: 45.2
CACUGCAAUGUAGGAUAUCGACUGGAAUACAGUCGAGAAGGACAUGAGGAUCACCCAUGUACUUUGAGUGAAUAAUAAGCAGUG: 59.4
GAAUAAUUGAUCCUUUUUUAUUACAUGAGGAUCACCCAUGUGCAGGAUAUCGAUUGUUUUAGUUUCGAGAAGGGCAAGAACUGU: 255

Continue with the next sequence.
// UCUUUCGUUGUGAGGAUAUGCCCAAAUAAAAGCGGGCAGAAGGCACAUGAGGAUCACCCAUGUCCUGCGGUUUU : apparent Kd value = 288

====

Readings of apparent Kd for the listed sequences
Test system: MS2 coat protein
method_summary: apparent Kd, MS2 coat protein; higher = weaker binding; RNA-MaP array; FMN 200 µM where present
conditions: ligand present: flavin mononucleotide; designed as: OFF switch for flavin mononucleotide
Expressed in nM, but write only the number.

GACUAGGCAGGAUAUACAUGAGGAUCACCCAUGUGUCUGCGUUAAGCACGUGAAGACGGUAGAAGGGCCUACAC: 18.1
UUAUGUUUUGUAGGAUAUCAUUAGUUAUGUAUUAUAAUUGAAAUUUUGAUUUGAGAAGGACAUUUACAUGAGGAUCACCCAUGU: 9.92
AUGCUUUGUGUAGGAUAUGCAUACGGUACGUAUGCAGAAGGACAUGAGGAUCACCCAUGUAUAUUAUUAUUACAUAUCAUACAU: 229

Item CUCAUGUUAGGAUAUGCGCCCAGCCUAGUGGCCGGGCUCUAGCAGAAGGAACAUGAGGAUCACCCAUGUUUGCA was tested on MS2 coat protein; the reported apparent Kd is 18.6

Item CUUAUGUGAGGAUAUGGUGUUGAUCACAGGAAAAAGAUUCUCCAGAAGGCACAUGAGGAUCACCCAUGUAGUGA was tested on MS2 coat protein; the reported apparent Kd is 90

Item AAUAACAGAGGAUAUACUGUUUUAUGUGUUUGUUAUUUUGAACAUGAGGAUCACCCAUGUAGAAGGCUGAAUAA was tested on MS2 coat protein; the reported apparent Kd is 22.1

Item CCUUAAAUUGUAAGGAUAUUAAAGCUGCUGAGUUAUAAGAAGGUACAUGAGGAUCACCCAUGUUCGGCAGGGUC was tested on MS2 coat protein; the reported apparent Kd is 18.4

Item UAUAGGCUAGGAUAUACAACACUUGGUUCGAAUGUUUGGAGACAUGAGGAUCACCCAUGUAGAAGGAGCAUUUC was tested on MS2 coat protein; the reported apparent Kd is 190

Item GAAAACAGAGGAUAUACAUGAUUAUGACGAAAGUCAUAAAAACAUGAGGAUCACCCAUGUAGAAGGCUGAAGAA was tested on MS2 coat protein; the reported apparent Kd is 201

Item CUUUAGUCAGGAUAUACAUGAGGAUCACCCAUGUAAAAUUUUAAUUUAAUUUUAAGGUGUAGAAGGGACCACCC was tested on MS2 coat protein; the reported apparent Kd is 29.3

Item CCUGUGUGAGGAUAUGGUGUUGGCCAAAAGGAAUAGCUCCUCCAGAAGGCACAUGAGGAUCACCCAUGUCGUGG was tested on MS2 coat protein; the reported apparent Kd is 81.9

Item GGAUGAGAAACUCAUCCAAAUCGAACAUGAGGAUCACCCAUGUAGGAUAUGCUACUCAAAGAGUAGCAGAAGGACAUGUGCUUU was tested on MS2 coat protein; the reported apparent Kd is 232

Item CAGUACUGAGGAUAUACAUGAGGAUCACCCAUGUGUUGCAGCUAGGAAACUAGCAAAAGUAGAAGGCAGUACUG was tested on MS2 coat protein; the reported apparent Kd is 21

Item UGUAUGUGGGCAGGAUAUACAUGAAUAUAUAUGAUGUAGUAUGAUGUAACAUGAGGAUCACCCAUGUAGAAGGGCCGGUGUAUG was tested on MS2 coat protein; the reported apparent Kd is 214

Item CUGCUCCGUGUAGGAUAUGCAUACUCCCAUUAUGCAGAAGGACAUGAGGAUCACCCAUGUAUGUUAUUAUCACGUGUUGCGUAC was tested on MS2 coat protein; the reported apparent Kd is 92.2

Item UACAUCGGAGGAUAUACAUGAGGAUCACCCAUGUGAGUGUAAGGGAGCGUAAGCGGGUGUAGAAGGCCGUCUUU was tested on MS2 coat protein; the reported apparent Kd is 49.5

Item GCACGGCAUGUAGGAUAUCGAGCGCCGGGCGCUCGAGAAGGACAUGAGGAUCACCCAUGUAGUCUCAGUGAGAGACUGCUGUGC was tested on MS2 coat protein; the reported apparent Kd is 36.2

Item CUAUGAAGAAUAGGAUAUUCGAUCAAGAGGAUAGAAGAAGGGUUACAUGAGGAUCACCCAUGUAUGCACAUGAGGAUCCCUUAG was tested on MS2 coat protein; the reported apparent Kd is 107

Item AUGAGUAAAGCAGGAUAUCUAUUGUCUCUGUAACAUGAGGAUCACCCAUGUAGAGAAGGGCUUAGUCAUACACUUCGAAGUUGA was tested on MS2 coat protein; the reported apparent Kd is 10.1

Item AUUAGUAUCUAGGAUAUCUAGUACAUAGUAUCUAGAGAAGGAGAUACAUGAGGAUCACCCAUGUUCUGUGUUCU was tested on MS2 coat protein; the reported apparent Kd is 64.5

Item CGUACUCAAGUGAGGAUAUUGUCUCGGAUACGAAACAAGAAGGCACAUGAGGAUCACCCAUGUAGAGAGUACGA was tested on MS2 coat protein; the reported apparent Kd is 14.3

Item GAACUAAAGCAUAGCUUUAGUCGUACAUGAGGAUCACCCAUGUAGGAUAUGGUAGGCAUAGCUUACUAGAAGGAUAGAGUGAUC was tested on MS2 coat protein; the reported apparent Kd is 82.4

Item GGUACUCAAAGAGUACUUGGUCGAACAUGAGGAUCACCCAUGUAGGAUAUGCAAAGCAAGAAGUAGCAGAAGGACAUGUGCAGC was tested on MS2 coat protein; the reported apparent Kd is 36.1

Item CUCAUGUGAGGAUAUGCUGCUCGUCACGAAAGUGAUGAGUAGCAGAAGGUACAUGAGGAUCACCCAUGUAAAUA was tested on MS2 coat protein; the reported apparent Kd is 18.8

Item UUGCCACAUGAGGAUCACCCAUGUGAGGAUAUGGCCCGUUUGGCGUGUGCUGGUUCUGUCAGAAGGCGCGUGGG was tested on MS2 coat protein; the reported apparent Kd is 21.7
